# Tested target: Protoporphyrinogen oxidase (Homo sapiens, UniProt P50336)
# Sequence (P50336 whole entry): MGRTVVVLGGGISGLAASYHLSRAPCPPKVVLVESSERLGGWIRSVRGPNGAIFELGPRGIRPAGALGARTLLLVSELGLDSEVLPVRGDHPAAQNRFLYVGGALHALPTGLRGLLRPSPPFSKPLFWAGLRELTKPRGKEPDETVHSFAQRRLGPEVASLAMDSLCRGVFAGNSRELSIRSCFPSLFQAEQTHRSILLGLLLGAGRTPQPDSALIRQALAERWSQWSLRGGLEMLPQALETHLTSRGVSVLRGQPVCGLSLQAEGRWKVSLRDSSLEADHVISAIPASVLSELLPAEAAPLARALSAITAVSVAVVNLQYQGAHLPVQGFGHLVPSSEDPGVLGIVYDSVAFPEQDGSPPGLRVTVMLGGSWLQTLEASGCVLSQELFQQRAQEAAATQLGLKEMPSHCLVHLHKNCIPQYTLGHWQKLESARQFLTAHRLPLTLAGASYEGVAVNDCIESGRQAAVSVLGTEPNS
# Measurement description: Inhibition of Homo sapiens (human) recombinant protoporphyrinogen oxidase expressed in Escherichia coli JM109 assessed as oxidation of protoporphyrinogen IX substrate by fluorescence assay
Parameter: Ki (nM)
Number only, in nM; omit the unit.

Solved cases below.
C#CCSc1nc2cc(-n3nc(C(C)(C)C)oc3=O)c(Cl)cc2s1 = 8610
CCOC(=O)CSc1nc2cc(-n3nc(C(C)(C)C)oc3=O)c(Br)cc2s1 = 6960

Query: Ki; subject: C=CCSc1nc2cc(-n3nc(C(C)(C)C)oc3=O)c(F)cc2s1
15900

----------
# Test system: Amaranthus retroflexus
# Measurement description: Post-emergence herbicidal activity against Amaranthus retroflexus assessed as growth inhibition at emulsified concentrate of 150 g/ai ha after 15 days by greenhouse test
# Type: functional
# key: entry, value: inhibition (INH)
Number only, in %; omit the unit.

CCOC(=O)CCCSc1nc2cc(-n3nc(C(C)(C)C)oc3=O)c(Cl)cc2s1 = 50

Query: inhibition (INH); subject: CCCOC(=O)CSc1nc2cc(-n3nc(C(C)(C)C)oc3=O)c(Cl)cc2s1
70

Query: inhibition (INH); subject: CCOC(=O)C(C)Sc1nc2cc(-n3nc(C(C)(C)C)oc3=O)c(Cl)cc2s1 (stereo not drawn)
100

Recorded values, source ChEMBL document CHEMBL3045650.
